Tested on: Amaranthus retroflexus (AMARE)
Assay: Post-emergence efficacy, Amaranthus retroflexus
Type: in vivo
Conditions: post-emergence spray, 62.5 g/ha, evaluated after 13 days
quantity_kind: AMARE percentage damage caused to the plant (five point scale)

| molecule | measurement |
| --- | --- |
| Cc1nn(C)c(=O)c(-c2c(Cl)c(Cl)cc(Cl)c2OCc2cnc(Cl)s2)c1O | 3 (3=40-59%) |
| Cc1nn(C)c(=O)c(-c2c(Cl)ccc(Cl)c2OCc2ccnc(Cl)c2)c1O | 5 (5=80-100%) |
| Cc1nn(C)c(=O)c(-c2c(Cl)ccc(Cl)c2OCc2cncs2)c1O | 4 (4=60-79%) |
| Cc1nn(C)c(=O)c(-c2c(F)ccc(Cl)c2OCc2nccs2)c1O | 5 (5=80-100%) |
| Cc1nn(C)c(=O)c(-c2c(F)ccc(Cl)c2OCc2ccncc2)c1O | 2 (2=20-39%) |
| Cc1nn(C)c(=O)c(-c2c(Cl)ccc(Cl)c2OCc2cccnc2)c1O | 4 (4=60-79%) |
| Cc1nn(C)c(=O)c(-c2c(Cl)ccc(Cl)c2OCc2ccncc2)c1O | 1 (1=0-19%) |
| Cc1nc(COc2c(Cl)ccc(F)c2-c2c(O)c(C)nn(C)c2=O)cs1 | 3 (3=40-59%) |
| CC1=NN(C)C(=O)C(c2c(Cl)ccc(Cl)c2OCc2cnc(Cl)s2)C1=O (centres unmarked) | 5 (5=80-100%) |
| Cc1cnc(COc2c(Cl)ccc(Cl)c2-c2c(O)c(C)nn(C)c2=O)cn1 | 2 (2=20-39%) |
| Cc1nn(C)c(=O)c(-c2c(Cl)ccc(Cl)c2OCc2nccs2)c1O | 5 (5=80-100%) |
